Reported pIC50 values follow for various compounds
- TEST_TARGET: protein-protein interaction between Kras and SOS1 (biotin-tagged human Kras loaded with GDP, His-tagged human SOS1) (Homo sapiens (Human), UniProt P01116, G12D)
- EXPERIMENTAL_DETAILS: Protein-protein interaction inhibition between Kras and SOS1 (KrasG12D-SOS PPI) using AlphaScreen;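 further: kras produced in E. coli, Ni-coupled donor beads and streptavidin acceptor beads, excitation 680 nm with emission detected at 520–620 nm via singlet oxygen transfer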
- Type: biochemical
- RUN_CONDITIONS: AlphaScreen; biotin-tagged human Kras loaded with GDP, His-tagged human SOS1; read-out: KRAS G12D-SOS PPI IC50
Numbered stars: 1 amine (or outer) side, 2 acyl side, 3 side chain; on linkers, the order of the positions; unused ones are H or OH. Bridge positions count the residues as written; N and C are the ends. Square brackets hold non-standard residues; d marks the D form. Peptide text beside a SMILES is read from it. * marks the point of attachment. hPhe(3-Cl-4-CF3) = N[C@@H](CCc1ccc(C(F)(F)F)c(Cl)c1)C(=O)O; NMePhe(4-CF3) = CN[C@@H](Cc1ccc(C(F)(F)F)cc1)C(=O)O; NMedβ3hAla = C[C@H](CC(=O)[*:2])N(C)[*:1]; NMeChg = CN[C@H](C(=O)O)C1CCCCC1; NMeD = CN[C@@H](CC(=O)O)C(=O)O; NMeL = CN[C@@H](CC(C)C)C(=O)O; NMeNle = CCCC[C@H](NC)C(=O)O; NMeV = CN[C@H](C(=O)O)C(C)C; Trifluoroethyl = FC(F)(F)C*; NMeS = CN[C@@H](CO)C(=O)O; NMeA = CN[C@@H](C)C(=O)O; Piperidide = C1CCN(*)CC1; Ac5c = NC1(C(=O)O)CCCC1; Aze = O=C(O)[C@@H]1CCN1; Sar = CNCC(=O)O
Please keep in mind that pIC50 is minus log10 of the molar concentration; only the number is needed.

CC[C@H](C)[C@@H]1NC(=O)[C@H](CC(C)C)N(C)C(=O)C[C@@H](C(=O)N2CCCCC2)N(C)C(=O)[C@H](C(C)C)N(C)C(=O)C2(CCCC2)NC(=O)[C@@H]2CCCN2C(=O)[C@H](CCc2ccc(C(F)(F)F)c(Cl)c2)NC(=O)CN(C)C(=O)[C@H](COCC(F)(F)F)N(C)C(=O)[C@@H]2CCN2C(=O)[C@H](C)N(C)C1=O [Compound 254] ([NMeL]I[NMeA][Aze][NMeS](Trifluoroethyl)[Sar][hPhe(3-Cl-4-CF3)]P[Ac5c][NMeV][NMeD]-Piperidide; lactam N-11)	7.82
CC[C@H](C)[C@@H]1NC(=O)[C@H](CC(C)C)N(C)C(=O)C[C@@H](C)N(C)C(=O)[C@H](C2CCCCC2)N(C)C(=O)C2(CCCC2)NC(=O)[C@@H]2CCCN2C(=O)[C@H](CCc2ccc(C(F)(F)F)c(Cl)c2)NC(=O)CN(C)C(=O)[C@H](Cc2ccc(C(F)(F)F)cc2)N(C)C(=O)[C@@H]2CCN2C(=O)[C@H](C)N(C)C1=O [Compound 348] (cyclo([Ac5c][NMeChg][NMedβ3hAla][NMeL]I[NMeA][Aze][NMePhe(4-CF3)][Sar][hPhe(3-Cl-4-CF3)]P))	8.22

Okay, now this compound:
pIC50 reading for CCCC[C@H]1C(=O)N(C)CC(=O)N[C@@H](CCc2ccc(C(F)(F)F)c(Cl)c2)C(=O)N2CCC[C@H]2C(=O)NC2(CCCC2)C(=O)N(C)[C@@H](C(C)C)C(=O)N(C)[C@H](C(=O)N2CCCCC2)CC(=O)N(C)[C@@H](CC(C)C)C(=O)N[C@@H]([C@@H](C)CC)C(=O)N(C)[C@@H](C)C(=O)N2CC[C@H]2C(=O)N1C [Compound 1712] ([NMeL]I[NMeA][Aze][NMeNle][Sar][hPhe(3-Cl-4-CF3)]P[Ac5c][NMeV][NMeD]-Piperidide; lactam N-11) : 8.01
